Values from ChEMBL document CHEMBL4689842

System: HEK-293T
MEASUREMENT PROTOCOL: Multiplex assay against HEK293T
Type: toxicity, cell-based
RUN CONDITIONS: human, 48 h, 10 µM, compound concentration 10 uM, replicate 1
PROPERTY MEASURED: Population Hoechst High Intensity Objects (%)
Express the result in % but write the number alone.

State the recorded Population Hoechst High Intensity Objects (%) for this entry: C[C@@H](NCCCc1cccc(C(F)(F)F)c1)c1cccc2ccccc12.Cl [CINACALCET HYDROCHLORIDE]
18

State the recorded Population Hoechst High Intensity Objects (%) for this entry: CC(C)(O)CNc1ncc(-c2ccnc(Nc3ccnc(Cl)c3)n2)c(CC2CC2)n1
28

State the recorded Population Hoechst High Intensity Objects (%) for this entry: Cc1c(-c2ccc(O)cc2)n(Cc2ccc(OCCN3CCCCCC3)cc2)c2ccc(O)cc12
23

State the recorded Population Hoechst High Intensity Objects (%) for this entry: COc1ncc(-c2ccc3nccc(-c4ccnnc4)c3c2)cc1NS(=O)(=O)c1ccc(F)cc1F
21

State the recorded Population Hoechst High Intensity Objects (%) for this entry: C=CC(=O)Nc1ccc2ncnc(Nc3ccc(OCc4cccc(F)c4)c(Cl)c3)c2c1.Cc1ccc(S(=O)(=O)O)cc1
12

State the recorded Population Hoechst High Intensity Objects (%) for this entry: C=CC(=O)Nc1cccc(C(=O)Nc2ccc(Nc3cc(-c4[nH]c(SC)nc4C)ccn3)cc2)c1
14

State the recorded Population Hoechst High Intensity Objects (%) for this entry: NC(=O)Nc1cc(-c2cccc(F)c2)sc1C(=O)N[C@H]1CCCNC1
21

State the recorded Population Hoechst High Intensity Objects (%) for this entry: COc1cc(-n2cnc3cc(-c4ccc(Cl)cc4)sc3c2=O)ccc1OCCN1CCCC1
29

State the recorded Population Hoechst High Intensity Objects (%) for this entry: CN(C)C(=O)/C(C#N)=C/c1ccc(-c2nc3cnc4[nH]ccc4c3n2C2CCCCC2)o1
34

State the recorded Population Hoechst High Intensity Objects (%) for this entry: CN1CCN(c2ccc(OC(F)(F)F)c(Nc3ncc4c(n3)-c3c(c(C(N)=O)nn3CCO)CC4)c2)CC1
14

State the recorded Population Hoechst High Intensity Objects (%) for this entry: CNCc1ccccc1-c1csc([C@H](C)Nc2nc(C)nc3cc(OC)c(OC)cc23)c1
18

State the recorded Population Hoechst High Intensity Objects (%) for this entry: COc1cc2nccc(Oc3ccc(NC(=O)Nc4cc(C)on4)c(Cl)c3)c2cc1OC.O
11

State the recorded Population Hoechst High Intensity Objects (%) for this entry: CN1CCCC(n2nc(Cc3ccc(Cl)cc3)c3ccccc3c2=O)CC1.Cl (configuration not stated) [AZELASTINE HYDROCHLORIDE]
27

State the recorded Population Hoechst High Intensity Objects (%) for this entry: CN1CCC[C@@H]1CCO[C@](C)(c1ccccc1)c1ccc(Cl)cc1.O=C(O)/C=C/C(=O)O [CLEMASTINE FUMARATE]
23

State the recorded Population Hoechst High Intensity Objects (%) for this entry: Cc1csc2c(N[C@@H](C)CN3CCN(S(=O)(=O)c4ccc(Cl)c(Cl)c4)CC3)ncnc12
17

State the recorded Population Hoechst High Intensity Objects (%) for this entry: OC1(c2ccc(Cl)cc2)CCN(Cc2c[nH]c3ccccc23)CC1
18

State the recorded Population Hoechst High Intensity Objects (%) for this entry: c1cn2cc(-c3ccc4cn[nH]c4c3)nc(Nc3ccc(N4CCOCC4)cc3)c2n1
25

----------
Tested on: HEK-293T
MEASUREMENT PROTOCOL: Multiplex assay against HEK293T
Assay type: toxicity, cell-based
RUN CONDITIONS: human, 48 h, 1 µM, compound concentration 1 uM, replicate 1
Provide the recorded Population Membrane Permeable-Phenotype (%) for the entries that follow.

Test system HEK-293T; read-out Population Membrane Permeable-Phenotype (%); what value for Cc1csc2c(N[C@@H](C)CN3CCN(S(=O)(=O)c4ccc(Cl)c(Cl)c4)CC3)ncnc12 ?
5%

Test system HEK-293T; read-out Population Membrane Permeable-Phenotype (%); what value for CN1CCC[C@@H]1CCO[C@](C)(c1ccccc1)c1ccc(Cl)cc1.O=C(O)/C=C/C(=O)O [CLEMASTINE FUMARATE] ?
4%

Test system HEK-293T; read-out Population Membrane Permeable-Phenotype (%); what value for CC[C@H](C)C(=O)O[C@H]1C[C@@H](C)C=C2C=C[C@H](C)[C@H](CC[C@@H]3C[C@@H](O)CC(=O)O3)[C@H]21 [LOVASTATIN] ?
2%

Test system HEK-293T; read-out Population Membrane Permeable-Phenotype (%); what value for CN(C)C(=O)N[C@H]1CC[C@H](CCN2CCN(c3cccc(Cl)c3Cl)CC2)CC1.Cl [CARIPRAZINE HYDROCHLORIDE] ?
0%

Test system HEK-293T; read-out Population Membrane Permeable-Phenotype (%); what value for C=CC(=O)Nc1cccc(C(=O)Nc2ccc(Nc3cc(-c4[nH]c(SC)nc4C)ccn3)cc2)c1 ?
6%

Test system HEK-293T; read-out Population Membrane Permeable-Phenotype (%); what value for COc1cc(-n2cnc3cc(-c4ccc(Cl)cc4)sc3c2=O)ccc1OCCN1CCCC1 ?
5%

Test system HEK-293T; read-out Population Membrane Permeable-Phenotype (%); what value for Cl.N#Cc1ccc2[nH]cc(CCCCN3CCN(c4ccc5oc(C(N)=O)cc5c4)CC3)c2c1 [VILAZODONE HYDROCHLORIDE] ?
2%

----------
System: U2OS
MEASUREMENT PROTOCOL: Multiplex assay against U2OS
Type: toxicity, cell-based
RUN CONDITIONS: human, 12 h, 10 µM, compound concentration 10 uM, replicate 1
PROPERTY MEASURED: Population Mitochondria Different-Phenotype (%)
Express the result in % but write the number alone.

State the recorded Population Mitochondria Different-Phenotype (%) for this entry: Cn1cc(-c2[nH]c3cc(NC(=O)[C@H](N)C4CCCCC4)cc4c3c2C=NNC4=O)cn1
34

State the recorded Population Mitochondria Different-Phenotype (%) for this entry: Cc1csc2c(N[C@@H](C)CN3CCN(S(=O)(=O)c4ccc(Cl)c(Cl)c4)CC3)ncnc12
100

State the recorded Population Mitochondria Different-Phenotype (%) for this entry: COc1cc2nccc(Oc3ccc(NC(=O)Nc4cc(C)on4)c(Cl)c3)c2cc1OC.O
96

State the recorded Population Mitochondria Different-Phenotype (%) for this entry: COc1cccc([C@@H](C)NCCCc2ccccc2Cl)c1.Cl [TECALCET HYDROCHLORIDE]
86

State the recorded Population Mitochondria Different-Phenotype (%) for this entry: Cc1c(-c2ccc(O)cc2)n(Cc2ccc(OCCN3CCCCCC3)cc2)c2ccc(O)cc12
97

State the recorded Population Mitochondria Different-Phenotype (%) for this entry: CN1CCC[C@@H]1CCO[C@](C)(c1ccccc1)c1ccc(Cl)cc1.O=C(O)/C=C/C(=O)O [CLEMASTINE FUMARATE]
97

State the recorded Population Mitochondria Different-Phenotype (%) for this entry: OC1(c2ccc(Cl)cc2)CCN(Cc2c[nH]c3ccccc23)CC1
92

State the recorded Population Mitochondria Different-Phenotype (%) for this entry: CN1CCN(c2ccc(OC(F)(F)F)c(Nc3ncc4c(n3)-c3c(c(C(N)=O)nn3CCO)CC4)c2)CC1
77

State the recorded Population Mitochondria Different-Phenotype (%) for this entry: Cn1c(-c2csc(C3CCN(CC4=NC5N=CC=CC5N4)CC3)n2)nc2ccccc21 (configuration not stated)
10

State the recorded Population Mitochondria Different-Phenotype (%) for this entry: CC(C)NCC(O)COc1ccc(CCOCC2CC2)cc1.Cl (configuration not stated) [BETAXOLOL HYDROCHLORIDE]
64

State the recorded Population Mitochondria Different-Phenotype (%) for this entry: Cc1[nH]c(/C=C2\C(=O)Nc3ccc(S(=O)(=O)N(C)c4cccc(Cl)c4)cc32)c(C)c1C(=O)N1CCN(C)CC1
68

State the recorded Population Mitochondria Different-Phenotype (%) for this entry: CCN(CC)CCCCNc1ncc2cc(-c3cc(OC)cc(OC)c3)c(NC(=O)NC(C)(C)C)nc2n1
27

State the recorded Population Mitochondria Different-Phenotype (%) for this entry: C=CC(=O)Nc1cc2c(Nc3ccc(F)c(Cl)c3)ncnc2cc1OCCCN1CCOCC1.Cl.Cl [CANERTINIB DIHYDROCHLORIDE]
11

State the recorded Population Mitochondria Different-Phenotype (%) for this entry: CC(C)(O)CNc1ncc(-c2ccnc(Nc3ccnc(Cl)c3)n2)c(CC2CC2)n1
90

State the recorded Population Mitochondria Different-Phenotype (%) for this entry: c1cn2cc(-c3ccc4cn[nH]c4c3)nc(Nc3ccc(N4CCOCC4)cc3)c2n1
61

State the recorded Population Mitochondria Different-Phenotype (%) for this entry: Cc1nc(Nc2n[nH]c3c2CN(C(=O)N[C@H](CN(C)C)c2ccccc2)C3(C)C)c2sccc2n1
37

State the recorded Population Mitochondria Different-Phenotype (%) for this entry: CN1CCCC(n2nc(Cc3ccc(Cl)cc3)c3ccccc3c2=O)CC1.Cl (configuration not stated) [AZELASTINE HYDROCHLORIDE]
97
